Source: BindingDB's records for doi:10.1021/jm00100a018

- assay_info: Concentration tested in vitro to inhibit PAF-induced maximum aggregation (PAF-Antagonistic activity) by 50%.
pIC50: −log10 of the molar value.
parameter: pIC50

The cases that follow already have their pIC50 on record.
{"compound": "COc1cc(C(=O)N2CCN(C(C#N)c3cccnc3)CC2)cc(OC)c1OC (centres undefined)", "pIC50": 5.72}
{"compound": "N#CC(c1cccnc1)N1CCN(C(=O)Cc2ccccc2)CC1 (centres undefined)", "pIC50": 5.57}
{"compound": "O=C(c1cccnc1)N1CCN(C(=O)C(c2ccccc2)c2ccccc2)CC1", "pIC50": 4.64}
{"compound": "N#CC(c1cccnc1)N1CCN(C(=O)/C=C/c2ccccc2)CC1 (centres undefined)", "pIC50": 5.60}

(I) CC(C#N)(c1cccnc1)N1CCN(C(=O)C(c2ccccc2)c2ccccc2)CC1 (centres undefined)
(II) N#CC(c1cccnc1)N1CCN(C(=O)/C(=C/c2ccccc2)c2ccccc2)CC1 (centres undefined)
**Q:** Hey, which is lower on measured pIC50, I or II ? Please reply using the label of the selected record.
**A:** I
(I: 6.62, II: 8.12)
